Test system: SNB-75 CNS
assayRemarks: NCI-60 one-dose screen, 48 h (100 = growth as untreated, 0 = no growth, -100 = all killed)
measurementSetup: 10 µM
This is part of a sample that, as a whole, favours compounds with a hit. Of some 83,000 tested, about 20% had one in any assay.
measurementLabel: growth (%)
Just the number in %, nothing appended.

compound	outputUnit	growth
CN1CCCN(Cc2ccc(C(=O)Nc3cccc(Nc4ccc5cc(O)ccc5n4)c3)cc2C(F)(F)F)CC1	%	32.2
O=C(NO)c1ccc(Cn2ccc3c(NCc4ccccc4)ncnc32)cc1	%	-8.17
OCc1[nH]nc2cc(Nc3ncc4ccc(Br)c(OC5CCC(O)CC5)c4n3)ccc12 (configuration not stated)	%	-44.1

Switching to the query record.
## Task Which growth value belongs to "Brc1ccc(/C=N/Nc2ncnc3sc4c(c23)CCN(Cc2ccccc2)C4)cc1" ?
## Result -7.37

* * *

Tested on: HOP-92 NSCLC
assayRemarks: NCI-60 one-dose screen, 48 h (100 = growth as untreated, 0 = no growth, -100 = all killed)
measurementSetup: 10 µM
About 83,000 compounds went through this panel and 20% of them were active in at least one assay; those are over-represented in the sample as a whole.
API: label(entry) gives 1 if the entry's growth is strictly smaller than 90%; on equality or larger values it gives -1.

## Task Given the entry CC(=O)C1=C(C)NC(SCC(=O)Nc2ccc(S(=O)(=O)Nc3cc(C)on3)cc2)=NC1c1ccccc1 (stereo not given) , would its reported growth be below 90%?
## Result -1

* * *

Test system: HOP-92 NSCLC
assayRemarks: NCI-60 one-dose screen, 48 h (100 = growth as untreated, 0 = no growth, -100 = all killed)
measurementSetup: 10 µM
This is part of a sample that, as a whole, favours compounds with a hit. Of some 83,000 tested, about 20% had one in any assay.
Some molecules, each annotated with its measured growth.
Just the number in %, nothing appended.

Example cases with answers are listed next.
molecule	testedSystem	growth, %
NS(=O)(=O)c1ccc(N=Nc2c(O)n(CC(=O)Nc3ccccc3Br)c3ccccc23)cc1	HOP-92 NSCLC	38.7
COc1ccc(C2N(c3ccc(Br)cc3)N=C(C(C)=O)N2[C@H]2[C@H](OC(C)=O)O[C@H](COC(C)=O)[C@@H](OC(C)=O)[C@@H]2OC(C)=O)cc1 (stereo partly specified)	HOP-92 NSCLC	79.2
NC1=NC(c2ccccc2Cl)N=C(Nc2nn[nH]n2)N1 (stereo unspecified)	HOP-92 NSCLC	95.3
Nc1nc(Nc2ccc(Cl)cc2)n(Cc2cccc(Br)c2)n1	HOP-92 NSCLC	-49.5
CCCCSc1nc(Nc2ccc(/C(C)=N/NC(N)=S)cc2)c(C#N)c(-c2ccccc2)n1	HOP-92 NSCLC	-19.7

## Task Which growth value belongs to "Cc1ccc(C(C)C)cc1NC(=O)c1ccccc1N(C)C" ?
## Result 73.8

## Task Which growth value belongs to C#CCNC(=O)CCC(=O)OC[C@]12CC[C@@H](C(=C)C)[C@@H]1C1CC[C@@H]3[C@@]4(C)CCCNC(C)(C)[C@@H]4CC[C@@]3(C)[C@]1(C)CC2 (stereo partly specified) ?
## Result -14.4

## Task Which growth value belongs to O=C(c1ccc(O)cc1)C1[C@H](c2ccccc2Br)[C@@H](c2ccccc2)NC12C(=O)Nc1ccc(Cl)cc12 (stereo partly specified) ?
## Result -1.49

## Task Which growth value belongs to "O=C1NC(=NC23CC4CC(CC(C4)C2)C3)N/C1=C\c1ccc2ncccc2n1" ?
## Result -14.6

## Task Which growth value belongs to "O=c1[nH]c2ccc(Cl)cc2cc1CSc1ccc(Nc2nccc(-c3ccc(Cl)cc3)n2)cc1" ?
## Result 82.1

## Task Which growth value belongs to "COc1ccc2[nH]cc(/C=N/Nc3ccc(Br)cn3)c2c1" ?
## Result -24.5

## Task Which growth value belongs to "O=C1Nc2ccc(Cl)cc2/C1=C/c1cccc(OCc2ccccc2)c1" ?
## Result 16.5

* * *

Some compounds, each annotated with its measured growth.
Test system: U251 CNS
assayRemarks: NCI-60 one-dose screen, 48 h (100 = growth as untreated, 0 = no growth, -100 = all killed)
measurementSetup: 10 µM
Method: Growth inhibition of the U251 human tumor cell line is measured as a screen for anti-cancer activity. Cells are grown in 96 well plates and exposed to the test compound for 48 hours. Compounds are tested at a single concentration, which is 10^-5 M for most compounds. The reported endpoint is percent growth (GI% or GIPRCNT), where numbers from 0 - 100% represent growth inhibition, and numbers from -100% - 0 represent cell death. For example, a value of 40 represents 60% growth inhibition. […]
Compounds without any hit were thinned out: in the full panel of roughly 83,000, 20% have a hit.
Just the number in %, nothing appended.

N#Cc1c(NC(=O)c2ccc(C(F)(F)F)cc2C(F)(F)F)sc2c1CCC(=O)C2 8.82

## Task Which growth value belongs to "COc1cc2c3c(n(CCCn4ccnc4)c(=O)c2cc1OC)-c1nc2c(cc1C3=O)OCO2" ?
## Result 20.9

## Task Which growth value belongs to "Cc1ccc(-c2cc(-c3cc4ccccc4nc3Cl)[nH]c(=S)n2)cc1" ?
## Result 71.8

## Task Which growth value belongs to "O=C1NC(=NC23CC4CC(CC(C4)C2)C3)N/C1=C\c1ccc2ncoc2c1" ?
## Result 10

## Task Which growth value belongs to "O=[N+]([O-])c1ccc(-c2nc(-c3ccccc3)c(-c3ccccc3)n2-c2ccc(S(=O)(=O)Nc3ncccn3)cc2)cc1" ?
## Result 35.8

## Task Which growth value belongs to "Cc1ccc(-c2nc3ccc(C(=O)N=Nc4c(O)[nH]c5ccc(Cl)cc45)cc3[nH]2)cc1" ?
## Result -100

## Task Which growth value belongs to "O=c1[nH][nH]c(Nc2ccccc2)c1N=Nc1ccc(F)cc1" ?
## Result 99.9

## Task Which growth value belongs to "O=C1Nc2cc(Cl)ccc2/C1=C/c1cccc(OCc2ccc(Br)cc2F)c1" ?
## Result -1.12

## Task Which growth value belongs to "COc1ccc(-c2cc(-c3cc(C(=O)c4ccc(Br)cc4)n4ccc(C)cc34)nc(N)c2C#N)cc1" ?
## Result 64.7

* * *

Test system: MDA-MB-231 breast
assayRemarks: NCI-60 one-dose screen, 48 h
measurementSetup: 10 µM
This is part of a sample that, as a whole, favours compounds with a hit. Of some 83,000 tested, about 20% had one in any assay. The source made the active and inactive calls. The calls were made as follows: active = growth percent below 10; inactive = the rest.
In this exercise, the only acceptable responses are active, inactive

O=C(NC(=S)N1CCN(c2ncnc3c2cnn3-c2ccccc2)CC1)c1ccc(Cl)cc1 inactive
Cc1noc2c(Cc3ccc([N+](=O)[O-])cc3)nn(CC(=O)N/N=C/c3ccc(Cl)cc3)c(=O)c12 active
Cc1ccc(-c2ccc(SCC(=O)Nc3ccc(S(N)(=O)=O)cc3Br)nn2)cc1 active
COc1cc(/C=C/C(=O)c2ccc(F)cc2)ccc1Oc1nc(Nc2ccc(F)cc2)nc(N(C)C)n1 inactive
O=C(Nc1ccc(OCc2ccccc2)cc1)Nc1ccc(Cl)c(C(F)(F)F)c1 active

## Task Per the records of this test, what outcome belongs to "CC(=C(c1ccc(OCCN2CCCCC2)cc1)c1ccc(OCCN2CCCCC2)cc1)c1ccccc1" ?
## Result active

* * *

Some compounds, each annotated with its measured growth.
Test system: SK-MEL-28 melanoma
assayRemarks: NCI-60 one-dose screen, 48 h (100 = growth as untreated, 0 = no growth, -100 = all killed)
measurementSetup: 10 µM
The panel holds about 83,000 compounds, 20% with a hit somewhere; the sample as a whole holds those more often. Activity calls are given as the source filed them. The calls were made as follows: active = growth percent below 10; inactive = the rest.

Example cases with answers are listed next.
compound	measurementLabel	result
COc1ccc(N2N=C(c3ccc4c(c3)OCCO4)CC2c2cccc(NC(=O)CCCNS(=O)(=O)c3ccc(F)cc3)c2)cc1 (centres undefined)	growth	81.5% (inactive)
CO[C@@H]1CSSC1Cn1nc(-c2ccc(Oc3ccccc3)cc2)c2c(N)ncnc21 (some centres undefined)	growth	-34.4% (active)
CC(C)C(=O)Nc1ccc(C(=O)NC(=S)Nc2ccc(C(=O)O)cc2)cc1	growth	102% (inactive)
O=C(N/N=C/c1ccc(B(O)O)o1)c1[nH]c2ccc(Br)cc2c1-c1ccccc1	growth	62.1% (inactive)
O=C(O)CCCCCCCCCCN1C(=O)/C(=C/c2cnc(-c3ccccc3)s2)SC1=S	growth	97.4% (inactive)
CN1CCN(c2ccc(Nc3nc(NCCCNC(=O)c4ccccc4)c4sccc4n3)cc2)CC1	growth	73.3% (inactive)
O=C(CSc1nnc(-c2c[nH]c3ccccc23)n1-c1ccccc1)Nc1ccc(C(=O)/C=C/c2cccc([N+](=O)[O-])c2)cc1	growth	102% (inactive)
O=C(/C=C/Nc1ccc(F)cc1F)c1ccc2c(c1)Nc1ccccc1S2	growth	79.2% (inactive)

Switching to the query record.
## Task Which growth value belongs to "Clc1ccc2c(N/N=C/c3c[nH]c4ccc(Br)cc34)ccnc2c1" ?
## Result -98.5% (active)

These entries and their values trace back to PubChem BioAssay (NCI).
